Molecular target: T1, hPRLR.mFc (soluble dimeric human PRLR) (Homo sapiens, UniProt P16471)
T1 construct: dimeric (hPRLR.mFc)
T1 sequence (P16471 with tags, fused parts or gaps): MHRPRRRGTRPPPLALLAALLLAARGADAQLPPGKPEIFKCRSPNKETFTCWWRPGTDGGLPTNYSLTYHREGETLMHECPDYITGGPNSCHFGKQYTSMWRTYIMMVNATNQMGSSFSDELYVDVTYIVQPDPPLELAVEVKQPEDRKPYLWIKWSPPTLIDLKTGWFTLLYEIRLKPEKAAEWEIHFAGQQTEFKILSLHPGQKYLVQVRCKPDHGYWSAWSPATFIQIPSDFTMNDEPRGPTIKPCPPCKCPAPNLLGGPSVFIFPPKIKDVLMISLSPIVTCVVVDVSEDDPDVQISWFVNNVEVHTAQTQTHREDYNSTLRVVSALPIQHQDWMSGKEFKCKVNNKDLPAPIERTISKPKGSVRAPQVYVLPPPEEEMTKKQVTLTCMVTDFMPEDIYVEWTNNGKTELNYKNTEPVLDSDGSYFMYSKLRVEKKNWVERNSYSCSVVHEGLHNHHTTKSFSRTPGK
Assay: Surface plasmon resonance (Biacore T200), mAb-capture format
Type: binding
Settings: 37° C., antibody-capture format, analyte hPRLR.mFc
pKd: −log10 of the molar value.
assayEndpoint: pKd

molecule	assayEndpoint	measuredNumber
H1H6804P: anti-PRLR antibody, human IgG1 Fc; HCVR/LCVR SEQ ID NOs 242/250 (antibody, V domains shown, human IgG1 Fc) VH: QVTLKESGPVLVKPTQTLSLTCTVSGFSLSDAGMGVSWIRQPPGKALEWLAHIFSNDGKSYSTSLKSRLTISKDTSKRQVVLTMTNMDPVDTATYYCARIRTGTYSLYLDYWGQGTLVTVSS VL: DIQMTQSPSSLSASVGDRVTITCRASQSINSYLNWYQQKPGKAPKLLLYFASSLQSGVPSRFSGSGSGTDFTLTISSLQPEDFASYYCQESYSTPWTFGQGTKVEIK	pKd	9.43
H1H6765P: anti-PRLR antibody, human IgG1 Fc; HCVR/LCVR SEQ ID NOs 18/26 (antibody, V domains shown, human IgG1 Fc) VH: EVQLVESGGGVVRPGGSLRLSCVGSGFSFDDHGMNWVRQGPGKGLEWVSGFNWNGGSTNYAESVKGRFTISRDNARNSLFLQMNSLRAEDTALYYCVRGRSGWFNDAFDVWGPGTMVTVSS VL: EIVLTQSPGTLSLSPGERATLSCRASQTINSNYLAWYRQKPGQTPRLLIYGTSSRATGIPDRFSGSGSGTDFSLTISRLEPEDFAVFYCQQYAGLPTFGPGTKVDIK	pKd	9.89
